Tested on: F1 hybrid maize plants
Assay: efficacy field trial for quizalofop-P tolerance and clethodim sensitivity
Format: in vivo
Details: scale 0 to 100; 0.32 lb ai/acre at VE-V2, V4, V8; with CTP unless label says no CTP
Measurement type: average injury rating, V4 Growth Stage, 4x Quizalofop
Lab note: jot down the number only; don't add units.

MON-HT5: engineered oxygenase protein, amino acid sequence SEQ ID NO:28 (protein) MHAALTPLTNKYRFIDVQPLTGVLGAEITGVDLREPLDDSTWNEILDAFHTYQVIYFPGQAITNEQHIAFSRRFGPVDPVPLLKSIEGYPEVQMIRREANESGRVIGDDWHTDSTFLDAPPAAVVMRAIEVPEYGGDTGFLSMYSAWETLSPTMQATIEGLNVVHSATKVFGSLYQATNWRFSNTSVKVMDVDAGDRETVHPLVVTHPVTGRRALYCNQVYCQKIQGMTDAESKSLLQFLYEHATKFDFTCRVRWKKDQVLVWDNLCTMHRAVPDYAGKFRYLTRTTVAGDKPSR | 1.3

Record summary for MON-HT1: engineered oxygenase protein, amino acid sequence SEQ ID NO:14 (protein) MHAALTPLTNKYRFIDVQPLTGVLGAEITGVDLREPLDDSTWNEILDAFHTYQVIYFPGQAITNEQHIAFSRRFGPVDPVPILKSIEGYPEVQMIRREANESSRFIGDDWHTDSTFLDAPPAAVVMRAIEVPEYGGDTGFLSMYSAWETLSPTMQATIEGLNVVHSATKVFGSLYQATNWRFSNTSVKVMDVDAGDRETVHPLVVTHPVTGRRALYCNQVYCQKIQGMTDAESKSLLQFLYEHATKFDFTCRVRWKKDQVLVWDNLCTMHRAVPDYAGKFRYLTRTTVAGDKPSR : reported average injury rating, V4 Growth Stage, 4x Quizalofop = 0.0

Value source: patent US12723255B2
